This collection of values is drawn from PubChem BioAssay AID1159580.

experiment: chemical genetic growth profiling, strain panel (AID 1159580);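 also: tested at 20 µM; growth read once vehicle control cultures reached saturation at 30 °C; 1 = growth at the plate median or of vehicle wells; lower values mean less growth of the strain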; conditions: S. cerevisiae deletion strains, growth OD, locus YAL013W, strain DEP1, active compounds read low
Hit rate of the full screen: of about 5,500 compounds, about 2,000 (36%) were called active. About 18% were inconclusive and are not listed. Some of the results follow.
Listing: normalized growth of selected compounds

compound: O=S(=O)(c1cccc2c(I)cccc12)N1CCCNCC1
normalized growth: 0.983
--
compound: COC(=O)C1OC(=O)C2OC23C1(C)CCC1C2(C)C(OC(C)=O)CC(OC(C)=O)C(C)(C)C2CC(=O)C13C (stereo not drawn)
normalized growth: 1.02
--
compound: CCOC(=O)N/N=C\c1ccccc1OCC
normalized growth: 1.02
--
compound: NC(=O)NCCCC(N)C(=O)O (stereo not drawn)
normalized growth: 1.01
--
compound: Cc1ccc(/C=C2\CCc3ccccc3C2=O)o1
normalized growth: 0.451
--
compound: Cc1cc(C)c(CSCCNC(=O)Nc2ccc(F)cc2F)c(C)c1
normalized growth: 1.02
--
compound: OC1(C(F)(F)F)CC(c2ccc3ccccc3c2)=NN1 (stereo not drawn)
normalized growth: 0.205
--
compound: CN1CCC2(CCN3CCc4c(oc5ccccc45)C3C2)N(C)C1=O (stereo not drawn)
normalized growth: 1.02
--
compound: CSc1nsc(SC)c1C(=O)NC(=O)Nc1ccc(F)cc1F
normalized growth: 1.01
--
compound: N#Cc1ccc(-c2csc(-c3ccc(Oc4ccc(C(F)(F)F)cn4)cc3)n2)cc1
normalized growth: 0.98
--
compound: CCN(CC)C(=O)N[C@H]1C=C2c3cccc4[nH]cc(c34)C[C@H]2N(C)C1
normalized growth: 1.01
--
compound: CC(C)c1c(O)ccc2c1CCC1[C@@](C)(CO)CCC[C@]21C (stereo partly drawn)
normalized growth: 0.978
--
compound: Cc1ccc(-c2csc(-c3ccc(Oc4ccc(C(F)(F)F)cn4)cc3)n2)c(C)c1
normalized growth: 0.995
--
compound: CN[C@@H]1C(O)[C@@H](O[C@@H]2[C@@H](O)[C@H](O[C@H]3OC(CN)=CC[C@H]3N)[C@@H](N)C[C@H]2N)OC[C@]1(C)O (stereo partly drawn)
normalized growth: 1.02
--
compound: CC(=O)OCC1=C(C(=O)O)N2C(=O)[C@@H](NC(=O)Cc3cccs3)[C@H]2SC1
normalized growth: 0.991
--
compound: N#C/C(=C\c1ccc(O)c(O)c1)C(=O)NCc1ccccc1
normalized growth: 0.997
--
compound: CN1C[C@H](C(=O)N[C@]2(C)O[C@@]3(O)[C@@H]4CCCN4C(=O)[C@H](Cc4ccccc4)N3C2=O)C[C@@H]2c3cccc4[nH]cc(c34)C[C@H]21
normalized growth: 0.96
--
compound: CC1CC[C@@]2(OC1)O[C@H]1CC3C4CC[C@@H]5C[C@@H](O)CC[C@]5(C)C4CC[C@]3(C)[C@H]1[C@@H]2C (stereo partly drawn)
normalized growth: 1.03
--
compound: CC(=O)Oc1ccc2c(c1OC(C)=O)OCC1(O)Cc3c(cc(OC(C)=O)c(OC(C)=O)c3OC(C)=O)C21 (stereo not drawn)
normalized growth: 1.02
--
compound: Cn1[nH]c(=O)cc1C(=O)NN
normalized growth: 1
--
compound: COC(=O)CSc1ncnc2c(C)csc12
normalized growth: 0.989
--
compound: OC1(C(F)(F)F)CC(c2ccccc2)=NN1 (stereo not drawn)
normalized growth: 0.974
--
compound: C[C@H](O)C(=O)C1=Nc2c(nc(N)[nH]c2=O)NC1
normalized growth: 0.952
--
compound: CC(C)(C)NCC(O)c1cc(Cl)c(N)c(Cl)c1 (stereo not drawn)
normalized growth: 1.01
--
compound: COc1ccc2c3c1OC1C(O)CC=C4C(C2)N(C)CCC431 (stereo not drawn)
normalized growth: 0.994
--
compound: COCCCNC(=S)N/N=C\c1cccc(OC)c1O
normalized growth: 0.984
--
compound: COc1ccccc1NC(=O)NCCSCc1ccccc1Cl
normalized growth: 0.979
--
compound: O=[N+]([O-])c1ccc(Oc2cccc3cccnc23)cc1
normalized growth: 1.01
--
compound: O=C1c2ccccc2C(=O)N1CNc1ccc(N2CCOCC2)cc1
normalized growth: 1
--
compound: O=C1NC(=O)/C(=C/c2ccc(OS(=O)(=O)c3ccc(Cl)cc3)cc2)N1
normalized growth: 1
--
compound: COc1ccc(CCNc2ccc(C(F)(F)F)cc2N)cc1OC
normalized growth: 1
--
compound: O=C1C=C2C(=CCOC2O)O1 (stereo not drawn)
normalized growth: 0.922
--
compound: O=C1CC(Nc2ccccc2)C=C1Nc1ccccc1 (stereo not drawn)
normalized growth: 1.01
--
compound: C=C1SC(Nc2cccc(C(F)(F)F)c2)=NC12CCCCC2
normalized growth: 0.999
--
compound: OC[C@H]1O[C@@H](n2cnc3c(N[C@H]4CC5CCC4C5)ncnc32)[C@H](O)[C@@H]1O (stereo partly drawn)
normalized growth: 1
--
compound: Cc1cc(C2CCCCC2)n(O)c(=O)c1
normalized growth: 0.0568
--
compound: FC(F)(F)c1ccc(Cl)c(NC(=S)NN=C2CCCCCC2)c1
normalized growth: 0.989
--
compound: Cn1c2c(c3c1CCCC3)CCCC2
normalized growth: 0.995
--
compound: NC(=S)NCCCC(N)C(=O)O (stereo not drawn)
normalized growth: 1.01
--
compound: O=[N+]([O-])c1ccc(OCCCOc2ccc([N+](=O)[O-])cc2)cc1
normalized growth: 1
--
compound: CCCCCCC(C)OC(=O)COc1ccc(Cl)cc1Cl (stereo not drawn)
normalized growth: 0.981
--
compound: CC(C)[C@@]1(NC(=O)[C@@H]2C[C@@H]3c4cccc5[nH]cc(c45)C[C@H]3N(C)C2)O[C@@]2(O)[C@@H]3CCCN3C(=O)[C@H](Cc3ccccc3)N2C1=O
normalized growth: 0.941
--
compound: CO[C@@]1(NC(=O)C(C(=O)O)c2ccc(O)cc2)C(=O)N2C(C(=O)O)=C(CSc3nnnn3C)CO[C@@H]21 (stereo partly drawn)
normalized growth: 1.01
